Would you kindly list melting point for each of these compounds?

Value of measured melting point for the entry CC(C)(C(N)=O)c1nnc2ccc(OCCCN3CCC(OC(c4ccccc4)c4ccccc4)CC3)nn12 [Example 23a] : 133 to 136 °C

Value of measured melting point for the entry "CCOC(=O)Cn1nc2ccc(NCCCN3CCC(OC(c4ccccc4)c4ccccc4)CC3)nn2c1=O" : 137 to 139 °C

Value of measured melting point for the entry c1ccc(C(c2ccccc2)N2CCN(CCCCCCNc3ccc4nncn4n3)CC2)cc1 [Example 11a] : 133 to 139 °C

Value of measured melting point for the entry "c1ccc(C(OC2CCN(CCOc3ccc4nncn4n3)CC2)c2ccccc2)cc1" : 149 to 150 °C

Value of measured melting point for the entry CC(C)(NC(=O)c1nnc2ccc(NCCCN3CCC(OC(c4ccccc4)c4ccccc4)CC3)nn12)C(=O)O [Example 26a] : 191 to 193 °C

Value of measured melting point for the entry "CCOC(=O)C(C)(C)n1nc2ccc(NCCCN3CCC(OC(c4ccccc4)c4ccccc4)CC3)nn2c1=O.Cl" : 162 °C

Value of measured melting point for the entry CC(C)(C)C(=O)OCOC(=O)C(C)(C)n1nc2ccc(NCCCN3CCC(OC(c4ccccc4)c4ccccc4)CC3)nn2c1=O [Example 11b] : 162 °C

Value of measured melting point for the entry "Cn1nc2ccc(OCCCN3CCC(OC(c4ccccc4)c4ccccc4)CC3)nn2c1=O" : 139 to 140 °C

Value of measured melting point for the entry "c1ccc(C(c2ccccc2)N2CCN(CCCOc3ccc4nncn4n3)CC2)cc1" : 132 to 134 °C

Value of measured melting point for the entry CC(C)(C(=O)O)c1nnc2ccc(NCCCN3CCC(OC(c4ccccc4)c4ccccc4)CC3)nn12 [Example 19a] : 155 to 157 °C

Value of measured melting point for the entry "c1ccc(C(OC2CCN(CCCNc3ccc4nncn4n3)CC2)c2ccccc2)cc1" : 167 to 168 °C

###

Test system: guinea pig eosinophils
Test: Suppression of LTB4-induced chemotactic reaction in guinea pig eosinophils
Format: cell-based
Conditions: LTB4 10^−8 M-induced chemotaxis, test substance 1×10^−5 M; Table 2
Structures can show the parent of a compound that is named as a salt.
measure-name: Suppression rate (%)
Give just the numeric value; % need not be written.

Value of measured Suppression rate (%) for the entry c1ccc(C(OC2CCN(CCCCCCOc3ccc4nncn4n3)CC2)c2ccccc2)cc1 [Example 7a, Fumarate] : 36

Value of measured Suppression rate (%) for the entry CC(C)(C)c1nnc2ccc(OCCCN3CCC(OC(c4ccccc4)c4ccccc4)CC3)nn12 [Example 13a] : 41

Value of measured Suppression rate (%) for the entry c1ccc(C(OC2CCN(CCCCCCNc3ccc4nncn4n3)CC2)c2ccccc2)cc1 [Example 10a] : 60

Value of measured Suppression rate (%) for the entry O=C(O)c1nnc2ccc(NCCCN3CCC(OC(c4ccccc4)c4ccccc4)CC3)nn12 [Example 22a] : 50

###

Structures can show the parent of a compound that is named as a salt.
measure-name: melting point

Value of measured melting point for the entry OC(COc1ccc2nncn2n1)CN1CCN(C(c2ccccc2)c2ccccc2)CC1 (stereo not shown) [Example 15a] : 95 to 97 °C

Value of measured melting point for the entry CCOC(=O)CNC(=O)c1nnc2ccc(NCCCN3CCC(OC(c4ccccc4)c4ccccc4)CC3)nn12 [Example 29a] : 152 to 155 °C

Value of measured melting point for the entry CC(C)(C)C(=O)OCn1nc2ccc(NCCCN3CCC(OC(c4ccccc4)c4ccccc4)CC3)nn2c1=O [Example 10b] : 168 to 171 °C

Value of measured melting point for the entry "CCOC(=O)C(C)(C)n1nc2ccc(OCCCN3CCC(OC(c4ccccc4)c4ccccc4)CC3)nn2c1=O.Cl" : 129 °C

Value of measured melting point for the entry c1ccc(C(c2ccccc2)N2CCN(CCCSc3ccc4nncn4n3)CC2)cc1 [Example 2a] : 143 to 144 °C

Value of measured melting point for the entry O=C(O)CNC(=O)c1nnc2ccc(NCCCN3CCC(OC(c4ccccc4)c4ccccc4)CC3)nn12 [Example 30a] : 182 to 184 °C

Value of measured melting point for the entry CC(C)(C(=O)O)n1nc2ccc(NCCCN3CCC(OC(c4ccccc4)c4ccccc4)CC3)nn2c1=O [Example 9b] : 181 to 185 °C

Value of measured melting point for the entry CCOC(=O)C(C)(C)NC(=O)c1nnc2ccc(NCCCN3CCC(OC(c4ccccc4)c4ccccc4)CC3)nn12 [Example 25a] : 165 to 167 °C

Value of measured melting point for the entry CCOC(=O)c1nnc2ccc(NCCCN3CCC(OC(c4ccccc4)c4ccccc4)CC3)nn12 [Example 21a] : 129 to 133 °C

Value of measured melting point for the entry c1ccc(C(OC2CCN(CCCCCCOc3ccc4nncn4n3)CC2)c2ccccc2)cc1 (as salt: fumarate) [Example 7a] : 144 to 146 °C

Value of measured melting point for the entry O=C(O)c1nnc2ccc(NCCCN3CCC(OC(c4ccccc4)c4ccccc4)CC3)nn12 [Example 22a] : 102 to 104 °C

Value of measured melting point for the entry c1ccc(C(OC2CCN(CCCCCCNc3ccc4nncn4n3)CC2)c2ccccc2)cc1 [Example 10a] : 124 to 127 °C

Value of measured melting point for the entry O=c1[nH]nc2ccc(NCCCN3CCC(OC(c4ccccc4)c4ccccc4)CC3)nn12 [Example 3b] : 156 to 170 °C

Value of measured melting point for the entry O=c1[nH]nc2ccc(OCCCN3CCC(OC(c4ccccc4)c4ccccc4)CC3)nn12 [Example 4b] : 209 to 211 °C

Value of measured melting point for the entry CC(C)(NC(=O)c1nnc2ccc(OCCCN3CCC(OC(c4ccccc4)c4ccccc4)CC3)nn12)C(=O)O [Example 28a] : 163 to 165 °C

Value of measured melting point for the entry CCOC(=O)Cn1nc2ccc(OCCCN3CCC(OC(c4ccccc4)c4ccccc4)CC3)nn2c1=O [Example 5b] : 124 to 125 °C
